The reported measurements were obtained from ChEMBL document CHEMBL1201862.

Tested on: UACC-62
test-details: NCI tumour cell line growth inhibition, 48 h
Calls of active or inactive are those of the source. Rule as the data show it: active = GI50 up to about 1.1 µM and inactive = higher.
Would you mind answering with one of these outcomes? active, inactive

Reference set (4 entries):
molecule: OC(c1ccccc1)(c1cccnc1)C(O)(c1ccccc1)c1cccnc1 (configuration not stated)
class: inactive

molecule: Cc1ccc(/N=N/NCCCCN)cc1
class: inactive

molecule: CC1CC(C)C(=O)C(C(=O)CC2CC(=O)NC2=O)C1 (configuration not stated)
class: inactive

molecule: CC1(c2ccccc2)CC12C(=O)NC(=O)NC2=O (configuration not stated)
class: inactive

*Q* // return assay outcome for O=C(Nc1ccc(Br)cc1)C(=O)C(C(=O)c1ccccc1F)C1OC(=O)c2ccccc21 (configuration not stated)
*A* inactive

*Q* Please answer likewise for COc1cccc2c1CCc1sc(CN3CCN(C)CC3)nc1-2
*A* inactive

*Q* Please answer likewise for CCCCn1c2c(n(CCCC)c1=S)-c1c(n(CCCC)c(=S)n1CCCC)S[Se][Se]S2
*A* inactive

*Q* Please answer likewise for CCCCCC(C/C=N/N(C)C)C(O)(C(F)(F)F)C(F)(F)F (configuration not stated)
*A* inactive

*Q* Please answer likewise for Cc1ccc2c(c1)-c1c(C#N)c(N)nc(-c3ccccc3)c1CCS2(=O)=O
*A* inactive

*Q* Please answer likewise for COC(=O)C(CCC#N)(CCC#N)C(=O)OC
*A* inactive

*Q* Please answer likewise for CC(=O)OC1(C(C)=O)CC2(c3ccccc3)OC1(c1ccccc1)c1ccccc12 (configuration not stated)
*A* inactive

*Q* Please answer likewise for Cc1cc(C(C)(C)C)c(OCCCN2CCOCC2)c(C(C)(C)C)c1
*A* inactive

*Q* Please answer likewise for C=C=C(C(=O)OC)[S+]([O-])c1ccc([N+](=O)[O-])cc1[N+](=O)[O-] (configuration not stated)
*A* inactive

*Q* Please answer likewise for COc1ccc(N(C)Sc2ccccc2)cc1
*A* inactive

*Q* Please answer likewise for COC1OC(C)/C(=N/O)C2OC(C)(C)OC12 (configuration not stated)
*A* inactive
